- Assay Explanation: Inhibition of muscarinic receptor
pIC50: −log10 of the molar value.
Parameter: pIC50

Exam item: # query: pIC50 of entry CC(C)C1c2cc(C#Cc3ccc4cc(C(=N)N)ccc4c3)ccc2CCN1C (stereo unspecified)
Marked response: > 5.00

* * *

Target protein (sequence): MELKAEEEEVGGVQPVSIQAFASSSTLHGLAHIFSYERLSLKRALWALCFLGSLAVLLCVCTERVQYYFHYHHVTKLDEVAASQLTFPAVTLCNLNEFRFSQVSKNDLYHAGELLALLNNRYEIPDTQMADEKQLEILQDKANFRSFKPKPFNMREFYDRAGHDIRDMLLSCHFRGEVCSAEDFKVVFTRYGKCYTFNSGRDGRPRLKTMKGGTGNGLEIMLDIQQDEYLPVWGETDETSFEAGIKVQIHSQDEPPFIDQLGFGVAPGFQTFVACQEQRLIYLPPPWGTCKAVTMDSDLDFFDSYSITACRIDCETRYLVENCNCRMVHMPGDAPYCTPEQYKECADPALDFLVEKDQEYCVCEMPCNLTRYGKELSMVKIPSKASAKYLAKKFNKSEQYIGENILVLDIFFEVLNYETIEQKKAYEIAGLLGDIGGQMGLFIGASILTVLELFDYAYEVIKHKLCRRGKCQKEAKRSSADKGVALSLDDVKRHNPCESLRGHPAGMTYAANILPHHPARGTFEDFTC
Parameter: pIC50
In simple prose, pIC50 is minus the logarithm base ten of a concentration in moles per litre.

Exam item: Param item = `NCc1sc2cc(C#Cc3ccc4c(c3)CNCC4)ccc2c1Cl` ; retrieve measured pIC50.
Marked response: 6.65

* * *

- System: Brain
- Assay Explanation: Drug uptake in Sprague-Dawley rat brain at 100 mg/kg, po
- Assay type: ADME, organism-based
- Parameters: dose 100 mg/kg, route oral
- Condition Summary: in vivo, read-out: Drug uptake
Parameter: concentration (µM)
Just the number in µM, nothing appended.

Exam item: Endpoint output: concentration of `NCc1sc2cc(C#Cc3ccc4c(c3)CNCC4)ccc2c1Cl` . Value?
Marked response: 14

* * *

- Assay Explanation: Inhibition of serotonin receptor
Parameter: IC50

Exam item: Endpoint output: IC50 of CC(C)C1c2cc(C#Cc3ccc4cc(C(=N)N)ccc4c3)ccc2CCN1C (stereo unspecified) . Value?
Marked response: < 10 µM

* * *

For each record, write down the corresponding pIC50.
- Study Target: Acid-sensing ion channel 3 (Homo sapiens, UniProt Q9UHC3)
- Sequence (Q9UHC3 whole entry): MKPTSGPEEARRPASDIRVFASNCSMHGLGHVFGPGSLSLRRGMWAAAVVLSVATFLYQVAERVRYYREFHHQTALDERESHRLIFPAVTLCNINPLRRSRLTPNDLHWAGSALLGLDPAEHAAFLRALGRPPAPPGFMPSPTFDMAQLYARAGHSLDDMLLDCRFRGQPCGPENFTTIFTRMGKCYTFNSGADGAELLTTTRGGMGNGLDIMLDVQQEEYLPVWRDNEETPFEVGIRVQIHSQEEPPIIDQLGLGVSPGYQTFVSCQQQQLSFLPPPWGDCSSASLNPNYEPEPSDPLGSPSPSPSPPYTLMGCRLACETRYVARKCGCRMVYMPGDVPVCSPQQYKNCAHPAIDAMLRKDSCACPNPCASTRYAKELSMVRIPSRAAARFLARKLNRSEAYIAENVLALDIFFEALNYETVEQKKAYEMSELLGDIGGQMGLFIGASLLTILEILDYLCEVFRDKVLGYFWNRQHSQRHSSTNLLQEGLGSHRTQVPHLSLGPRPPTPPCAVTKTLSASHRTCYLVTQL
- Assay Explanation: Inhibition of ASIC3 assessed as inhibition of peak current by electrophysiology method
API: returns pIC50 as number; meaning -log10 of concentration in mol/L.

Exam item: Notebook: pull reported pIC50 for Acid-sensing ion channel 3 (Homo sapiens, UniProt Q9UHC3), entry `CN1CCc2ccc(C#Cc3ccc4c(Cl)c(CN)sc4c3)cc2C1`
Marked response: 6.17

Exam item: Can you look up pIC50 on Acid-sensing ion channel 3 (Homo sapiens, UniProt Q9UHC3) for `NCc1sc2cc(C#Cc3ccc4c(c3)CN(Cc3ccccc3)CC4)ccc2c1Cl` ?
Marked response: 4.77

Exam item: Give recorded pIC50 with Acid-sensing ion channel 3 (Homo sapiens, UniProt Q9UHC3) for the following compound: NCc1sc2cc(C#Cc3cccc4c3CCCC4N3CCCC3)ccc2c1Cl (stereo not drawn)
Marked response: 5.60

Exam item: Lookup: pIC50 / Acid-sensing ion channel 3 (Homo sapiens, UniProt Q9UHC3) / `CCN1CCc2ccc(C#Cc3ccc4c(Cl)c(CN)sc4c3)cc2C1`
Marked response: 6.64

Exam item: What is its pIC50 for Acid-sensing ion channel 3 (Homo sapiens, UniProt Q9UHC3)? Entry: CC(c1cccc(C#Cc2ccc3c(Cl)c(CN)sc3c2)c1)N(C)C (stereo not drawn)
Marked response: 5.37

Exam item: Query for Acid-sensing ion channel 3 (Homo sapiens, UniProt Q9UHC3): what pIC50 does the record show for CN(C)C1CCCc2c(C#Cc3ccc4c(Cl)c(CN)sc4c3)cccc21 (stereo not drawn) ?
Marked response: 6.64

Exam item: Record lookup: for Acid-sensing ion channel 3 (Homo sapiens, UniProt Q9UHC3), what pIC50 belongs to `CC(C)N1CCc2ccc(C#Cc3ccc4c(Cl)c(CN)sc4c3)cc2C1` ?
Marked response: 6.51

Exam item: Please state recorded pIC50 (tested on Acid-sensing ion channel 3 (Homo sapiens, UniProt Q9UHC3)) of CC1c2cc(C#Cc3ccc4c(Cl)c(CN)sc4c3)ccc2CCN1C (stereo not drawn)
Marked response: 6.57

Exam item: Please state recorded pIC50 (tested on Acid-sensing ion channel 3 (Homo sapiens, UniProt Q9UHC3)) of `N=C(N)c1ccc2cc(C#Cc3ccccc3)ccc2c1`
Marked response: 5.20

Exam item: I'm curious: which pIC50 was measured for `NCc1sc2cc(C#Cc3ccccc3)ccc2c1Cl` tested on Acid-sensing ion channel 3 (Homo sapiens, UniProt Q9UHC3)?
Marked response: 5.55

Exam item: // fetch Acid-sensing ion channel 3 (Homo sapiens, UniProt Q9UHC3) pIC50 for `NCc1sc2cc(C#Cc3ccc4c(c3)CNCC4)ccc2c1Cl`
Marked response: 6.66

Exam item: Given the entry `N=C(N)c1sc2cc(C#Cc3ccccc3)ccc2c1Cl` , what pIC50 was observed with Acid-sensing ion channel 3 (Homo sapiens, UniProt Q9UHC3)?
Marked response: 5.47

Exam item: Give the reported pIC50 for CC(C)C1c2cc(C#Cc3ccc4cc(C(=N)N)ccc4c3)ccc2CCN1C (stereo not drawn) (system: Acid-sensing ion channel 3 (Homo sapiens, UniProt Q9UHC3)).
Marked response: 6.34

Exam item: Form field: pIC50 recorded for `NCc1ccc2cc(C#Cc3ccccc3)ccc2c1` with Acid-sensing ion channel 3 (Homo sapiens, UniProt Q9UHC3) (enter value)
Marked response: 5.32

Exam item: What is its pIC50 for Acid-sensing ion channel 3 (Homo sapiens, UniProt Q9UHC3)? Entry: CN(C)C1CCc2c(C#Cc3ccc4c(Cl)c(CN)sc4c3)cccc21 (stereo not drawn)
Marked response: 6.72

Exam item: # value lookup — system Acid-sensing ion channel 3 (Homo sapiens, UniProt Q9UHC3), readout pIC50, item `NCc1sc2cc(C#Cc3ccc4c(c3)CN(CC(F)F)CC4)ccc2c1Cl`
Marked response: 4.99
